Test system: U-87 MG
Experiment: Cytotoxicity in human U87 cells assessed as reduction in cell viability incubated for 72 hrs by SRB assay
Format: functional, cell-based, U-87MG ATCC
recordedMetric: IC50 (µM)
Numbers only; they are read as µM.

Guide cases for IC50, answers given:
• O=C(Nc1ccn([C@@H]2O[C@H](Cn3cc(CNc4ccn([C@@H]5O[C@H](CO)[C@@H](O)C5(F)F)c(=O)n4)nn3)[C@@H](O)C2(F)F)c(=O)n1)OCc1ccccc1 = 4.45
• CC(C)(C)OC(=O)O[C@@H]1[C@@H](Cn2cc(CNc3ccn([C@@H]4O[C@H](CO)[C@@H](O)C4(F)F)c(=O)n3)nn2)O[C@@H](n2ccc(NC(=O)OCc3ccccc3)nc2=O)C1(F)F = 3.81
• Nc1ccn([C@@H]2O[C@H](CO)[C@@H](O)C2(F)F)c(=O)n1 [GEMCITABINE] = 5.21

Task item: Any idea what its IC50 is? The compound is `CC(C)(C)OC(=O)O[C@@H]1[C@@H](Cn2cc(COC(=O)Nc3ccn([C@@H]4O[C@H](CO)[C@@H](O)C4(F)F)c(=O)n3)nn2)O[C@@H](n2ccc(NC(=O)OCc3ccccc3)nc2=O)C1(F)F`
Reply: 1.09

Task item: Any idea what its IC50 is? The compound is `Cc1cn([C@H]2C[C@H](O)[C@@H](Cn3cc(CNc4ccn([C@@H]5O[C@H](CO)[C@@H](O)C5(F)F)c(=O)n4)nn3)O2)c(=O)[nH]c1=O`
Reply: 128
